The origin of these recorded values is patent US20140271469A1.

Molecular target: T1, Recombinant human integrin αvβ6 (human, UniProt P06756 31-992; P18564 22-707)
T1 construct: Bought soluble heterodimer; also called alpha-v-beta-6; avb6
T1 sequence (P06756 31-992, chain 1 of 2): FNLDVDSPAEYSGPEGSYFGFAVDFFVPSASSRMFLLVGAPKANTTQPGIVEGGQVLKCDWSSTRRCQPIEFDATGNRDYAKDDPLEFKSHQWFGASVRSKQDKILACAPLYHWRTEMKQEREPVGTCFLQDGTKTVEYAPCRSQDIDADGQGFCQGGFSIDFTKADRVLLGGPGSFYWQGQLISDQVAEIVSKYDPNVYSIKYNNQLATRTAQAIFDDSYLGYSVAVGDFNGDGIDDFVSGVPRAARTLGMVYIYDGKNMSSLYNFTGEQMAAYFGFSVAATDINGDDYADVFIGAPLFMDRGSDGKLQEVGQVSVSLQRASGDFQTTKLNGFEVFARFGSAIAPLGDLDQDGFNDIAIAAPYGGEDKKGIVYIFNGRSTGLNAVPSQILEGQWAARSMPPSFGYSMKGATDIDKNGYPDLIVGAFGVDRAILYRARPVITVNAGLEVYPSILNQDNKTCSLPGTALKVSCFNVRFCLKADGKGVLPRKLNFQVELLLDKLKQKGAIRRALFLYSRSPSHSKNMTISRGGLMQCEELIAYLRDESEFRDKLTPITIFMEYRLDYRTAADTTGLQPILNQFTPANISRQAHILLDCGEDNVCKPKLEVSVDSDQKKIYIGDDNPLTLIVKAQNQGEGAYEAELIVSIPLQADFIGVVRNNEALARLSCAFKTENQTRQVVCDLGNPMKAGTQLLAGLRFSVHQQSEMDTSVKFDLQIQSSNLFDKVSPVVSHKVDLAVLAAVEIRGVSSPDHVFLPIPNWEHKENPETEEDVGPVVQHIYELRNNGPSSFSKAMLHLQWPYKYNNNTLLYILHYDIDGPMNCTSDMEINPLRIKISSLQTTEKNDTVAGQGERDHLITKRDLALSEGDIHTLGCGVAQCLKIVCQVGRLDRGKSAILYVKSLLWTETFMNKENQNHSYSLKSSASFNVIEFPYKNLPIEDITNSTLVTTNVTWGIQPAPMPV
T1 sequence (P18564 22-707, chain 2 of 2): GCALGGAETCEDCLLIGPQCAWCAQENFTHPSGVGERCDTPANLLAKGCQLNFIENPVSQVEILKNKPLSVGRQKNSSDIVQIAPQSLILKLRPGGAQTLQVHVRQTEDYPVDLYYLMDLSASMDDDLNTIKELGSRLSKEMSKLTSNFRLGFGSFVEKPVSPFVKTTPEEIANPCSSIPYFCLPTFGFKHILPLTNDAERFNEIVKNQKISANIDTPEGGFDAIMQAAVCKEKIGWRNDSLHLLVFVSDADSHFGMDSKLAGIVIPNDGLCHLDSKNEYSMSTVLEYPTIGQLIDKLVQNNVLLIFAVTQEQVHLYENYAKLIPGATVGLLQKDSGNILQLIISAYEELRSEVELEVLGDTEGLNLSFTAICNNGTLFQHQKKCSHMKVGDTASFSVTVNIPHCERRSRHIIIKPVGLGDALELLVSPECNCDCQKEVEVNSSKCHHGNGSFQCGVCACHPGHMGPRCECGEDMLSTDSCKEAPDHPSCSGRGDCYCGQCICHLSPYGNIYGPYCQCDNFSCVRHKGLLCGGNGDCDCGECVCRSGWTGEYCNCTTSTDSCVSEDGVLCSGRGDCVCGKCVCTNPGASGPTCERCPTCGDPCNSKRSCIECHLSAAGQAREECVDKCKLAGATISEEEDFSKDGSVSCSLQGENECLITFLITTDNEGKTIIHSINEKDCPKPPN
Assay: flow cytometry, peptide displayed on yeast, soluble integrin αvβ6
Ends that are not written are not given here.
For each of the binders below, state its pKd.
Numbers only, as −log10 of the molar value.

Need pKd for each of these binders.
1. GCILNMRTDLGTLLFRCSSDSDCLAECICLENGFCG (It says only that activity '1' was tested in the S0 scaffold; also called activity '1' in the S0 scaffold) [S01]
2. GCRLVFRTDLDHLRGRCRRDSDCPGACICRGNGYCG (also called activity '3' in the R0 scaffold) [R03]
3. GCILNMRTDLGTLLFRCRRDSDCPGACICRGNGYCG (also called wild-type R01; wt) [R01]
4. GCRSLARTDLDHLRDRCSSDSDCLAECICLENGFCG (disulfide (positions not given here); not fully specified (bridges); also: three disulfide bonds, places not given here, also called activity '2' in the S0 scaffold) [S02]
5. GCRLVFRTDLDHLRGRCSSDSDCLAECICLENGFCG (It says only that activity '3' was tested in the S0 scaffold; The chain is composed here from the loop of R03 and the scaffold of S02, and the residue limits were counted by me; also called activity '3' in the S0 scaffold) [S03]

8.19
8.44
8.44
8.22
8.51

Return pKd for the following binder: GCRSLARTDLDHLRGRCRRDSDCPGACICRGNGYCG (also called activity '2' in the R0 scaffold) [R02]
8.49
